src = ChEMBL document CHEMBL3822364

System: Staphylococcus aureus
Test Protocol: Antibacterial activity against Staphylococcus aureus MTCC 3160 measured after 24 hrs by NCCL protocol based broth dilution method
Type: functional
Measurement Context: MTCC 3160, 24 h
// reported MIC per item
Quantity Measured: MIC (µg/mL)

                                   compound           study_target  quantity_measured  reading
0  CC1(C)O[C@H]2O[C@@H]3COB(c4cccc(C=O)c4)O[C@@H]3[C@H]2O1  Staphylococcus aureus                MIC      250
1           Cc1ccc(/N=C/c2cccc(B(O)O)c2)cc1  Staphylococcus aureus                MIC      500
2  CC1(C)O[C@H]2O[C@@H]3COB(c4cccc(/C=N/c5ccc(Cl)cc5)c4)O[C@@H]3[C@H]2O1  Staphylococcus aureus                MIC      250
3  CC1(C)O[C@H]2O[C@@H]3COB(c4cccc(/N=C/c5ccccc5O)c4)O[C@@H]3[C@H]2O1  Staphylococcus aureus                MIC      250
4  CC1(C)O[C@H]2O[C@@H]3COC(c4cccc(/C=N/c5ccc(F)cc5)c4)O[C@@H]3[C@H]2O1 (stereo partly specified)  Staphylococcus aureus                MIC      500
5  Cc1ccc(/N=C/c2cccc(B3OC[C@H]4O[C@@H]5OC(C)(C)O[C@@H]5[C@H]4O3)c2)cc1  Staphylococcus aureus                MIC      125
